# target or test system: T1, Flag-tagged soluble human Fas ligand (FasL-Flag) (human, UniProt P48023 103-281, limits assumed)
# T1 construct: Bought from Kamiya Biomedical; also called soluble FasL-Flag fusion protein; not shown: Flag tag
# T1 sequence (looked up): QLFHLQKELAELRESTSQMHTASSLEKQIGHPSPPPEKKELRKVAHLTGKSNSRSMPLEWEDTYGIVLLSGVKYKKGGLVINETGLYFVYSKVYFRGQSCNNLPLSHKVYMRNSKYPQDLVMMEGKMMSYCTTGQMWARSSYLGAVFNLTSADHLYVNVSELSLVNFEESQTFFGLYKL
# assay text: solid phase ligand binding assay; peptide preincubated with FasL-Flag, inhibition of binding to immobilised Fas-Fc
Positions of bridges follow the written chain, without caps; N, C: chain ends. No end group written: not given here.
readout type: IC50 (µM)
Numbers only, in µM.

Data request: Give recorded IC50. YCDEHFCY (disulfide 2-7, Synthetic exocyclic peptide derived from the Kp7 loop of human Fas (91 CDEGHGL 97); also called Fas mimetic Kp7-6; exocyclic mimetic Kp7-6) [Kp7-6]
Data returned: 150
